# assayedTarget: human MCHR1 (Homo sapiens, UniProt Q99705)
# Construct: host or cells: CHO
# Sequence (Q99705 whole entry): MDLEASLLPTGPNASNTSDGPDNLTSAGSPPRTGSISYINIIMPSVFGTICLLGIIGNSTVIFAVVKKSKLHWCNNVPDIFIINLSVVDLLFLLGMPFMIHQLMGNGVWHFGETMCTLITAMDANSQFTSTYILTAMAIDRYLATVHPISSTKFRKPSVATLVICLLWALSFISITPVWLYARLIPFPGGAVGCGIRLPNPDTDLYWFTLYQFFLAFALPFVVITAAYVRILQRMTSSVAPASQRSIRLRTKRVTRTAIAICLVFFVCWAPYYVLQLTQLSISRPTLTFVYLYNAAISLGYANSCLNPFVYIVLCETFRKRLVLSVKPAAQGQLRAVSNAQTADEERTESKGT
# experimentSummary: Cyclic AMP assay (MCHR-1 functional antagonism)
# Assay type: cell-based
# experimentalSetup: CHO cells stably expressing human MCHR1; cAMP accumulation with 25 uM forskolin and 0.2 nM MCH, 90 min; Ki from IC50 by Cheng-Prusoff; read-out: MCHR-1 functional Ki
valueKind: log10(Ki) (log10 of the value in nM)
Values are log10 of Ki in nM.

get_value(item= CN[C@@H]1CCN(c2ccc(-n3ccc(OCc4ccccc4)cc3=O)nc2)C1 [Example 33] , readout=log10(Ki)) returns 1.29

// field: log10(Ki); key: O=c1cc(OCc2ccc(F)cc2)ccn1-c1ccc(N2CCC(O)CC2)nc1 [Example 115] ; value = 2.00

Lab note: CC1(O)CCN(c2ccc(-n3ccc(OCc4ccccc4)cc3=O)cn2)C1 (centres unmarked) [Example 240] gave log10(Ki) of 1.89

Noted for CC(C)N(C)[C@H]1CCN(c2ccc(-n3ccc(OCc4ccccc4)cc3=O)cn2)C1 [Example 60] : its log10(Ki) reads 0.47

GET /value?item= O=c1cc(OCc2ccc(F)c(Cl)c2)ccn1-c1ccc(N2CC[C@@H](O)C2)nc1 [Example 206] &field=log10(Ki) returns 2.40

Form: molecule = CC(C)N1C[C@H]2CN(c3ccc(-n4ccc(OCc5ccc(F)cc5)cc4=O)cn3)C[C@H]2C1 [Example 207] ; log10(Ki) = 0.81

Record CC(=O)N[C@H]1CCN(c2ccc(-n3ccc(OCc4ccccc4)cc3=O)cn2)C1 [Example 162] . Reported log10(Ki): 1.49

Reported log10(Ki) of CN(C)[C@@H]1CCN(c2ccc(-n3ccc(OCc4ccccc4)cc3=O)cn2)C1 [Example 56] : 0.57

Values compiled from patent US20080085884A1.
